The values you see were collected from PubChem BioAssay AID651642.

# System: H9c2
# assayInfo: cardiomyocyte survival under oxidative or metabolic stress – cell-based, panel, H9c2 and HL-1, H2O2, 2-deoxyglucose, ATP luminescence, SAR follow-up (AID 651642)
# conditionDetails: H9c2/HL-1 cardiomyocyte H2O2 oxidative damage, run 3, with H2O2
recordedMetric: IC50

Q: Would you kindly share the measured IC50 for COc1ccccc1CN1C(=O)c2ccccc2N2C(=O)c3c(ccc(OC)c3OC)C12 (stereo not drawn) ?
Result: > 79 µM

Q: Endpoint output: IC50 of CCOC(=O)c1cccc(NC(=O)CNC(=O)c2cc(-c3cc(OC)c(OC)c(OC)c3)nc3ccc(C)cc23)c1 . Value?
Result: 0.517 µM

Q: Can you share its IC50? I mean this compound: COc1cc(-c2cc(C(=O)NCC(=O)Nc3cccc(C(C)=O)c3)c3cc(C)ccc3n2)cc(OC)c1OC
Result: 5.91 µM

Q: Return reported IC50; argument: CCOC(=O)c1cccc(NC(=O)c2cc(-c3cc(OC)c(OC)c(OC)c3)nc3cc(Cl)ccc23)c1
Result: > 79 µM

Q: So what's the measured IC50 for this one? COc1cc(-c2cc(C(=O)NCC(=O)Nc3cccc(C(C)=O)c3)c3ccccc3n2)cc(OC)c1OC
Result: 0.99 µM

Q: Consider the compound shown here: COc1cc(-c2cc(C(=O)NCC(=O)Nc3cccc(C(C)=O)c3)c3cccc(Cl)c3n2)cc(OC)c1OC What is its recorded IC50?
Result: 2.56 µM

Q: Please report the recorded IC50 for CCOC(=O)c1cccc(NC(=O)c2cc(-c3cc(OC)c(OC)c(OC)c3)nc3ccc(OC)cc23)c1 .
Result: 2.05 µM

Q: Give its IC50 value. Item: COc1ccc2c(c1OC)C(=O)N1c3ccccc3C(=O)N(Cc3cccc(Cl)c3Cl)C21 (stereo not drawn)
Result: > 79 µM

Q: Name the reported IC50 value associated with the compound COc1ccc2c(c1OC)C(=O)N1c3ccccc3C(=O)N(Cc3ccncc3)C21 (stereo not drawn)
Result: > 79 µM

Q: Which measured IC50 value corresponds to COc1cc(-c2cc(C(=O)Nc3cccc(C(=O)N4CCOCC4)c3)c3ccccc3n2)cc(OC)c1OC ?
Result: 4.73 µM

Q: Looking for the measured IC50 of COc1cc(-c2cc(C(=O)NCC(=O)Nc3ccc(C(C)=O)cc3)c3cc(F)ccc3n2)cc(OC)c1OC , can you help?
Result: > 79 µM

Q: # input compound: CCOC(=O)c1cccc(NC(=O)c2cc(-c3cc(OC)c(OC)c(OC)c3)nc3c(Cl)cccc23)c1 ; wanted: its IC50
Result: > 79 µM

Q: // lookup IC50 for COc1ccc2c(c1OC)C(=O)N1c3ccccc3C(=O)N(Cc3ccccn3)C21 (stereo not drawn)
Result: > 79 µM

Q: Sample COc1ccc2c(c1OC)C(=O)N1c3ccccc3C(=O)N(Cc3c(Cl)cccc3Cl)C21 (stereo not drawn) — what was its IC50?
Result: > 79 µM

Q: Which value of IC50 has been reported for COc1cc(-c2cc(C(=O)Nc3cccc(C(C)=O)c3)c3cc(C)ccc3n2)cc(OC)c1OC in the records?
Result: 3.55 µM

Q: Bench note: what IC50 did COC(=O)CNC(=O)c1cc(-c2cc(OC)c(OC)c(OC)c2)nc2ccccc12 show?
Result: > 79 µM

Q: Query (compound): COc1ccc2c(c1OC)C(=O)N1c3ccccc3C(=O)N(Cc3ccccc3Br)C21 (stereo not drawn) ; field requested: IC50
Result: > 79 µM

Q: Quick one: IC50 of COc1ccc2c(c1OC)C(=O)N1c3ccccc3C(=O)N(Cc3ccccc3)C21 (stereo not drawn) ?
Result: > 79 µM
